Just for reference, ChEMBL document CHEMBL1135084 is where these values come from.

tested on: Nucleic Acid; experiment: Percent DNA cleavage induced by administering the compound (0.1 uM) within 24 hr to form RfI DNA was determined by using phiX174 bacteriophage DNA; assay type: functional; conditions: Enterobacteria phage phiX174
Readout kind: Cleavage

Provide Cleavage values for the following items, in order.
1. Nc1cccc(C(=O)Nc2cc(NC(=O)c3ccccc3)cc(C(=O)NCNC(=O)c3cc(NC(=O)c4ccccc4)cc(NC(=O)c4cccc(N)c4)c3)c2)c1
2. Nc1cccc(C(=O)Nc2cc(NC(=O)c3ccccc3)cc(C(=O)NCCCNC(=O)c3cc(NC(=O)c4ccccc4)cc(NC(=O)c4cccc(N)c4)c3)c2)c1
3. Nc1cc(C(=O)Nc2cc(NC(=O)c3ccccc3)cc(C(=O)NCCNC(=O)c3cc(NC(=O)c4ccccc4)cc(NC(=O)c4cc(N)cc([N+](=O)[O-])c4)c3)c2)cc([N+](=O)[O-])c1
4. Nc1cccc(C(=O)Nc2cc(NC(=O)c3ccccc3)cc(C(=O)NCCNC(=O)c3cc(NC(=O)c4ccccc4)cc(NC(=O)c4cccc(N)c4)c3)c2)c1

Resp:
1. 0%
2. 24%
3. 36%
4. 35%

Req: Identify measured Cleavage associated with `Nc1cccc(C(=O)Nc2cc(NC(=O)c3ccccc3)cc(C(=O)NCCCCCNC(=O)c3cc(NC(=O)c4ccccc4)cc(NC(=O)c4cccc(N)c4)c3)c2)c1`
Resp: 35%

###

Give measured Cleavage for each item. Keep answers brief.
system: Nucleic Acid; test: Percent DNA cleavage induced by administering the compound (0.1 uM) within 24 hr to form RfII DNA was determined by using phiX174 bacteriophage DNA; format: functional; conditions: Enterobacteria phage phiX174
Answers are plain numbers, in %.

Query smiles	Reported
Nc1cc(C(=O)Nc2cc(NC(=O)c3ccccc3)cc(C(=O)NCCNC(=O)c3cc(NC(=O)c4ccccc4)cc(NC(=O)c4cc(N)cc([N+](=O)[O-])c4)c3)c2)cc([N+](=O)[O-])c1	64

Provide Cleavage values for the following items, in order.
1. Nc1cccc(C(=O)Nc2cc(NC(=O)c3ccccc3)cc(C(=O)NCCCCCNC(=O)c3cc(NC(=O)c4ccccc4)cc(NC(=O)c4cccc(N)c4)c3)c2)c1
2. Nc1cccc(C(=O)Nc2cc(NC(=O)c3ccccc3)cc(C(=O)NCCCNC(=O)c3cc(NC(=O)c4ccccc4)cc(NC(=O)c4cccc(N)c4)c3)c2)c1
3. Nc1cccc(C(=O)Nc2cc(NC(=O)c3ccccc3)cc(C(=O)NCNC(=O)c3cc(NC(=O)c4ccccc4)cc(NC(=O)c4cccc(N)c4)c3)c2)c1
4. Nc1cccc(C(=O)Nc2cc(NC(=O)c3ccccc3)cc(C(=O)NCCNC(=O)c3cc(NC(=O)c4ccccc4)cc(NC(=O)c4cccc(N)c4)c3)c2)c1

Resp:
65
76
100
65
